Measured values drawn from patent US8993585B2 for this set.

molecular target: PKC theta (Homo sapiens, UniProt Q04759)
Sequence (Q04759 whole entry): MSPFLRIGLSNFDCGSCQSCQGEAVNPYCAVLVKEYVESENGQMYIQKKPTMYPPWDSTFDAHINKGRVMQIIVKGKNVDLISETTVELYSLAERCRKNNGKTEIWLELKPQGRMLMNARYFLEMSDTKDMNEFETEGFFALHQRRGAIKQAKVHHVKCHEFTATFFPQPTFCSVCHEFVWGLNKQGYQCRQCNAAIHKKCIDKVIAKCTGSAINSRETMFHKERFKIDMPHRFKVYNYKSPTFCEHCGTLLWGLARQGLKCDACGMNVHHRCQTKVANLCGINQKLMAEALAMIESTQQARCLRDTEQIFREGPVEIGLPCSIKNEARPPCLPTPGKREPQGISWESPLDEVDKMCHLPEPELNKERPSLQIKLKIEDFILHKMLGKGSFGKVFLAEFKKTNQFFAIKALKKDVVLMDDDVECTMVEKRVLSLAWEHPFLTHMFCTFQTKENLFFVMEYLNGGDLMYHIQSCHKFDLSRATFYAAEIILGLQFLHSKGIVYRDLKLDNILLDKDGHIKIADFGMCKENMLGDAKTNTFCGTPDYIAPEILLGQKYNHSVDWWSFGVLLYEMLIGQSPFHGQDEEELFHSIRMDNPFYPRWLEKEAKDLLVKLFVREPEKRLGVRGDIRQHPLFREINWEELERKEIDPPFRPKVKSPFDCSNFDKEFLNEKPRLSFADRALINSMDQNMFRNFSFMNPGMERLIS
pIC50: −log10 of the molar value.
Label T when pIC50 is at or above 9; otherwise label F.

- CN1C(C)(C)CC(Nc2nc(Nc3ccc(CN4CCOCC4)c(C#N)c3)ncc2F)CC1(C)C: F

Input line: State whether the measured pIC50 reaches 9, counting equality as reaching it, for Cc1ccc(Nc2ncc(F)c(NC3CC(C)(C)N(C)C(C)(C)C3)n2)cc1Cl
Output line: F

Input line: State whether the measured pIC50 reaches 9, counting equality as reaching it, for CN1C(C)(C)CC(Nc2nc(Nc3ccc(N4CCN(S(=O)(=O)C5CC5)CC4)c(C(F)(F)F)c3)ncc2F)CC1(C)C
Output line: F

Input line: State whether the measured pIC50 reaches 9, counting equality as reaching it, for CN1C(C)(C)CC(Nc2nc(Nc3cccc(-c4nn[nH]n4)c3)ncc2F)CC1(C)C
Output line: F

Input line: State whether the measured pIC50 reaches 9, counting equality as reaching it, for COc1ccc(Nc2ncc(C#N)c(NC3CC(C)(C)N(C)C(C)(C)C3)n2)cc1-n1c(C)ccc1C
Output line: T
